Where do these numbers come from? They come from patent US20240218057A1.

# Lookup of reported EC50 keyed by entry
Target: T1, SARS-COV-2 RBD (SARS-COV-2, UniProt P0DTC2 319-539)
T1 construct: also called WT RBD
Assay: ELISA, RBD coated
Report the figure in ng/mL without appending any unit label.

Worked examples, 3 binders total:
{"binder": "C1039 (antibody, V domains shown, IgG; V domains only) VH: QVQLVQSGAEVKKPGASVKVSCKASGYTFTSHYMHWVRQAPGQGLEWMGIINPRTRYAQMFQGRVSMNRDTSTSTVYMELSSLTSEDTAVYYCAREGLGATAYFDYWGQGTLVTVSS VL: SYELTQPPSVSVAPGKTAGITCGGSDIGSKSVHWYQQKPGQAPVLVVYDDSDRPSGIPERFSGSNSGNTATLTISRVEAGDEADYYCQVWDSSSDPYVFGTGTKVSVL", "EC50 [ng/mL]": 2.61}
{"binder": "C1016 (antibody, V domains shown, IgG; V domains only) VH: QVQLQESGPGLVKPSGTLSLTCAVSGGPISSNHWWSWVRQPPGKGLEWIGEVYRNGNTNYHPSLKSRVTMSIDNSKNQFSLSLTSVTAADTAVYYCARGGDLAMGPEYLDFWGQGTLVTVSS VL: QSALTQPASVSGSPGQSITISCTGTSSDVGANNYVSWYQQHPGKAPKLMIYDVINRPSGVSDRFSGSKSGNTASLTISGLQAEDEADYYCSSFSTSSTLLFGGGTKLTVL", "EC50 [ng/mL]": 2.16}
{"binder": "C845 (antibody, V domains shown, IgG; V domains only) VH: QVQLQESGPGLVKPSQTLSLTCTVSGASISSGEYYWSWVRQPPGKGLEWVGYIYYSGSTYYNPSLKSRVTISVDTSKNHFSLKLKSLTAADTAVYFCATGGLSAFGELFPHDKWGQGTLVTVSS VL: EIVLTQSPATLSLSPGERATLSCRASQSVGSDLAWYQQKPGQAPRLLIYDTSNRATGIPARFSGSGSGTDFTLTISSLDPADFAVYYCQQRTNWLFSFGPGTKVDIK", "EC50 [ng/mL]": 1.5}

Okay, next one:
-- ask Identify measured EC50 corresponding to C1024 (antibody, V domains shown, IgG; V domains only) VH: QVQLVESGGGVVQPGRSLRLSCAASGFTFSDYAMHWVRQAPGKGLEWVAMISYDGNSQYYADSVKGRFTISRDNSKNTLYLQMNILRPEDTAVYYCARTFSIRIGHHDYWGQGTLVTVSS VL: NFMLTQPHSVSESPGKTVTISCTGSSGSIASNYVHWYQQRPGSAPTTVIFEDNQRPSGVPDRFSGSIDSSSNSASLTISGLKTEDEADYYCQSYDSSSFWVFGGGTKLTVL
-- reply 2.37
